- ASSAY TARGET: SARS-CoV-2 NSP3 macrodomain (Mac1) (Severe acute respiratory syndrome coronavirus 2)
- ASSAY NOTES: biochemical
- Format: binding
OBSERVATION TYPE: Average % competition

Worked cases, answers included:
I'd like to know its Average % competition. The compound in question is Cc1ccc2c(c1)C(=O)N(CCC(=O)Nc1cnc3c(c1)c(C)nn3C)C2=O [AVI-301]
16%

Average % competition lookup needed for Cc1ccc(C)c(CN2C(=O)NC(C)(Cc3ccc4c(c3)OCO4)C2=O)c1 (centres unmarked) [AVI-320] , thanks.
18%

Which Average % competition reading was recorded for the compound c1ccn2c(Sc3ncnc4ccsc34)nnc2c1 [AVI-308] ?
0%

New cases:
Endpoint output: Average % competition of Cc1noc(NCc2cc3ccccc3nc2O)n1 [AVI-322] . Value?
0%

Look up Average % competition: CC1CCCC1OC(=O)Cn1cnc2c1c(=O)n(C)c(=O)n2C (centres unmarked) [AVI-335]
<10%
